These compounds were tested on Staphyloc. 1756; MIC is the recorded read-out.
The figure you give is taken to be in µg/mL; do not add the unit.

MIC for CC1CN(c2nc3c(cc2F)c(=O)c(C(=O)O)cn3C2CC2)CCN1 (stereo not shown) is 0.5

MIC for CCn1cc(C(=O)O)c(=O)c2cc(F)c(N3CCNCC3)nc21 [Enoxacin, reference compound] is 1

Reported MIC of O=C(O)c1cn(C2CC2)c2nc(N3CCNCC3)c(F)cc2c1=O : 0.5

Record CN1CCN(c2nc3c(cc2F)c(=O)c(C(=O)O)cn3C2CC2)CC1.Cl , field MIC: 0.5

###

test system: Proteus vulg. 1017; assay: MIC, agar dilution test, Proteus vulg. 1017; assay type: cell-based; settings: agar dilution test / Isosensitest medium
RECORDED ENDPOINT: MIC

Please review the entries below; each comes with its answer.
>  <MOLECULE>
O=C(O)c1cn(C2CC2)c2nc(N3CCNCC3)c(F)cc2c1=O [Example 1]

>  <RECORDED ENDPOINT>
MIC

>  <MEASUREMENT>
0.06 µg/mL

$$$$
>  <MOLECULE>
CC1CN(c2nc3c(cc2F)c(=O)c(C(=O)O)cn3C2CC2)CCN1 (stereo not shown) [Example 2]

>  <RECORDED ENDPOINT>
MIC

>  <MEASUREMENT>
0.125 µg/mL

$$$$
>  <MOLECULE>
CCn1cc(C(=O)O)c(=O)c2cc(F)c(N3CCNCC3)nc21 [Enoxacin, reference compound]

>  <RECORDED ENDPOINT>
MIC

>  <MEASUREMENT>
0.125 µg/mL

$$$$

Pending molecule:
Note to self: MIC recorded for CN1CCN(c2nc3c(cc2F)c(=O)c(C(=O)O)cn3C2CC2)CC1.Cl [Example 3] was 0.125 µg/mL

###

Parameter 'readout' = MIC; parameter 'system' = Serratia 16040.
Express the reported value numerically, then name its unit.

As a guide, the following entries are already answered.
>  <MOLECULE>
CC1CN(c2nc3c(cc2F)c(=O)c(C(=O)O)cn3C2CC2)CCN1 (stereo not shown)

>  <TEST SYSTEM>
Serratia 16040

>  <RECORDED ENDPOINT>
MIC

>  <MEASUREMENT>
8 µg/mL

$$$$
>  <MOLECULE>
CCn1cc(C(=O)O)c(=O)c2cc(F)c(N3CCNCC3)nc21 [Enoxacin, reference compound]

>  <TEST SYSTEM>
Serratia 16040

>  <RECORDED ENDPOINT>
MIC

>  <MEASUREMENT>
32 µg/mL

$$$$

Looking up O=C(O)c1cn(C2CC2)c2nc(N3CCNCC3)c(F)cc2c1=O , I see its MIC listed as 8 µg/mL

// recorded MIC for CN1CCN(c2nc3c(cc2F)c(=O)c(C(=O)O)cn3C2CC2)CC1.Cl : 8 µg/mL

###

tested on: E.coli Neum.; assay: MIC, agar dilution test, E.coli Neum.; type: cell-based; details: Escherichia coli, agar dilution test / Isosensitest medium
RECORDED ENDPOINT: MIC

>  <MOLECULE>
O=C(O)c1cn(C2CC2)c2nc(N3CCNCC3)c(F)cc2c1=O

>  <MIC>
≤ 0.015 µg/mL

$$$$
>  <MOLECULE>
CC1CN(c2nc3c(cc2F)c(=O)c(C(=O)O)cn3C2CC2)CCN1 (stereo not shown)

>  <MIC>
≤ 0.015 µg/mL

$$$$
>  <MOLECULE>
CN1CCN(c2nc3c(cc2F)c(=O)c(C(=O)O)cn3C2CC2)CC1.Cl

>  <MIC>
≤ 0.015 µg/mL

$$$$

With those in mind, consider the next molecule.
Entry CCn1cc(C(=O)O)c(=O)c2cc(F)c(N3CCNCC3)nc21 [Enoxacin, reference compound] — recorded MIC = 0.06 µg/mL

###

system: Pseudomonas W.; assay: MIC, agar dilution test, Pseudomonas W.; format: cell-based; conditions: agar dilution test / Isosensitest medium
Recorded MIC for the following molecules
Form entry: value (µg/mL) — number only.

>  <MOLECULE>
CC1CN(c2nc3c(cc2F)c(=O)c(C(=O)O)cn3C2CC2)CCN1 (stereo not shown)

>  <MIC, µg/mL>
1

$$$$

For record CCn1cc(C(=O)O)c(=O)c2cc(F)c(N3CCNCC3)nc21 [Enoxacin, reference compound] the listed MIC is 2

For record CN1CCN(c2nc3c(cc2F)c(=O)c(C(=O)O)cn3C2CC2)CC1.Cl the listed MIC is 1

Entry O=C(O)c1cn(C2CC2)c2nc(N3CCNCC3)c(F)cc2c1=O — recorded MIC = 0.125

###

Below are MIC values measured for Staphyloc. 133.
Numeric only. Scale: µg/mL

Some entries whose results are on file:
>  <COMPOUND>
CCn1cc(C(=O)O)c(=O)c2cc(F)c(N3CCNCC3)nc21 [Enoxacin, reference compound]

>  <TEST SYSTEM>
Staphyloc. 133

>  <MIC, µg/mL>
1

$$$$
>  <COMPOUND>
CC1CN(c2nc3c(cc2F)c(=O)c(C(=O)O)cn3C2CC2)CCN1 (stereo not shown)

>  <TEST SYSTEM>
Staphyloc. 133

>  <MIC, µg/mL>
0.5

$$$$
>  <COMPOUND>
O=C(O)c1cn(C2CC2)c2nc(N3CCNCC3)c(F)cc2c1=O

>  <TEST SYSTEM>
Staphyloc. 133

>  <MIC, µg/mL>
0.5

$$$$

Now let's try a different one.
The recorded MIC with Staphyloc. 133 for CN1CCN(c2nc3c(cc2F)c(=O)c(C(=O)O)cn3C2CC2)CC1.Cl was 0.5

###

Please consider the recorded MIC for Klebsiella 63 in what follows.
# unit: µg/mL | format: bare number

>  <COMPOUND>
CCn1cc(C(=O)O)c(=O)c2cc(F)c(N3CCNCC3)nc21 [Enoxacin, reference compound]

>  <RECORDED ENDPOINT>
MIC

>  <MEASUREMENT>
0.5

$$$$

Continue with the compound presented below.
Record O=C(O)c1cn(C2CC2)c2nc(N3CCNCC3)c(F)cc2c1=O has Klebsiella 63 MIC equal to 0.03

Source listed as patent US4840954A.
